Test system: L1210 leukemia ip in BDF1 mice, survival T/C
EXPERIMENTAL DETAILS: NCI In Vivo Anticancer Drug Screen. Data for tumor model L1210 Leukemia (intraperitoneal) in B6D2F1 (BDF1) mice
RECORDED CONDITIONS: endpoint: mean survival time; dose: 200.0 mg/kg/injection; schedule: Q01DX001 (ip); vehicle: carboxymethylcellulose (CMC); higher = longer survival
Toxic doses and inconclusive results are not listed.
REPORTED METRIC: T/C

>>> experimental_value("Cc1cccc(C(=O)Cl)c1[N+](=O)[O-]")
"90 % of control"
>>> experimental_value("CCOC(=O)c1ccc(S(=O)(=O)N(CC)CC)cc1")
"91 % of control"
>>> experimental_value("NCCSc1cc(O)c2c(c1N)C(=O)c1ccccc1C2=O")
"100 % of control"
>>> experimental_value("COc1cc([N+](=O)[O-])c2nc(C(Br)(Br)Br)ccc2c1[N+](=O)[O-]")
"96 % of control"
>>> experimental_value("COc1ccc(/C(C#N)=C2C=C/C(=N\\O)C(C)=C/2Cl)cc1")
"93 % of control"

----------
System: L1210 leukemia ip in BDF1 mice, survival T/C
EXPERIMENTAL DETAILS: NCI In Vivo Anticancer Drug Screen. Data for tumor model L1210 Leukemia (intraperitoneal) in B6D2F1 (BDF1) mice
RECORDED CONDITIONS: endpoint: mean survival time; dose: 200.0 mg/kg/injection; schedule: Q04DX003 (ip); vehicle: saline; higher = longer survival
Inconclusive results and toxic doses are left out.
Measured T/C accompanies every entry in the list below.
REPORTED METRIC: T/C

>>> experimental_value("O=S(=O)(CC(Cl)c1ccccc1)c1ccc(F)cc1 (stereo unspecified)")
"97 % of control"
>>> experimental_value("CCC(OBr)C1COC(Nc2ccccc2)O1 (stereo unspecified)")
"105 % of control"
>>> experimental_value("COc1cc([N+](=O)[O-])c(C)cc1NCc1ccc(OC)c(OC)c1")
"98 % of control"
>>> experimental_value("O=S(=O)(O)c1ccc(O)c2ncccc12")
"101 % of control"
>>> experimental_value("S=C(S)NCCNC(=S)S")
"97 % of control"
>>> experimental_value("O=C(O)CCC1CCC(=O)OC1=O (stereo unspecified)")
"89 % of control"

----------
System: L1210 leukemia ip in BDF1 mice, survival T/C
EXPERIMENTAL DETAILS: NCI In Vivo Anticancer Drug Screen. Data for tumor model L1210 Leukemia (intraperitoneal) in B6D2F1 (BDF1) mice
RECORDED CONDITIONS: endpoint: mean survival time; dose: 100.0 mg/kg/injection; schedule: Q01DX009 (ip); vehicle: saline with Tween-80; higher = longer survival
Toxic doses and inconclusive results are not listed.
Listed next: entries and their corresponding T/C.
REPORTED METRIC: T/C

>>> experimental_value("CCN/C(C)=C\\C(=O)OCC")
"95 % of control"
>>> experimental_value("CCCCC(C)NC1=C(Cl)C(=O)c2ccccc2C1=O (stereo not given)")
"87 % of control"
>>> experimental_value("CC(C)=CCC/C(C)=C/CN1C(=O)c2ccccc2C1=O")
"103 % of control"
>>> experimental_value("O=C(CCCCl)CC(O)(C(F)(F)F)C(F)(F)F")
"104 % of control"
>>> experimental_value("CCCNC(C)(C)C(SSSC(c1ccc(C(F)(F)F)cc1)C(C)(C)NCCC)c1ccc(C(F)(F)F)cc1 (stereo not given)")
"96 % of control"
>>> experimental_value("Cc1ccccc1NC(=O)c1ccc([N+](=O)[O-])cc1")
"106 % of control"
>>> experimental_value("O=C1C(=O)N(CN2CCCCC2)c2ccccc21")
"98 % of control"
>>> experimental_value("Cc1nc2cc3ccccc3c3ccc4cccc1c4c23")
"93 % of control"
>>> experimental_value("COC(c1ccccc1)(c1ccccc1)C(C)O (stereo not given)")
"97 % of control"
>>> experimental_value("CNc1nc(Cl)nc2ccccc12")
"112 % of control"
>>> experimental_value("COc1ccc2[nH]c(-c3ccccc3)c(-c3ccccc3)c2c1")
"90 % of control"
>>> experimental_value("CCN(/C=C1/SC(=S)NC1=O)CC")
"98 % of control"
>>> experimental_value("O[Si](c1ccccc1)(c1ccccc1)c1ccccc1")
"95 % of control"
>>> experimental_value("Cc1cc2oc(=O)c(Cl)c(NCCO)c2c(C)c1Cl")
"104 % of control"
>>> experimental_value("O=C(O)CCN(Cc1ccccc1)Cc1ccccc1")
"101 % of control"

----------
Below, each entry is listed alongside its reported T/C.
System: L1210 leukemia ip in BDF1 mice, survival T/C
EXPERIMENTAL DETAILS: NCI In Vivo Anticancer Drug Screen. Data for tumor model L1210 Leukemia (intraperitoneal) in B6D2F1 (BDF1) mice
RECORDED CONDITIONS: endpoint: mean survival time; dose: 200.0 mg/kg/injection; schedule: Q04DX003 (ip); vehicle: Klucel (hydroxypropylcellulose) (HPC); higher = longer survival
Inconclusive results and toxic doses are left out.
REPORTED METRIC: T/C

>>> experimental_value("COc1ccc(C2(C#N)CCCCC2)cc1")
"100 % of control"
>>> experimental_value("CCCCNC(=O)Nc1ccc(CC)cc1")
"102 % of control"
>>> experimental_value("COc1ccc(Br)c(CCC(C)C)c1OC")
"108 % of control"
>>> experimental_value("CN(C)CC1CCCCC1=O (centres undefined)")
"102 % of control"

----------
Tested on: L1210 leukemia ip in BDF1 mice, survival T/C
EXPERIMENTAL DETAILS: NCI In Vivo Anticancer Drug Screen. Data for tumor model L1210 Leukemia (intraperitoneal) in B6D2F1 (BDF1) mice
RECORDED CONDITIONS: endpoint: mean survival time; dose: 400.0 mg/kg/injection; schedule: Q01DX001 (ip); vehicle: Klucel (hydroxypropylcellulose) (HPC); higher = longer survival
Inconclusive results and toxic doses are left out.
Overview of recorded T/C for various molecules
REPORTED METRIC: T/C

>>> experimental_value("COC(=O)/C=C1/OC(=O)CC1(C)C")
"107 % of control"
>>> experimental_value("CC(C)Cc1c(N)nc(=O)[nH]c1C(=O)O")
"100 % of control"
>>> experimental_value("O=C(O)c1ccc(Cl)cc1Nc1ccc(F)cc1")
"100 % of control"
>>> experimental_value("O=[N+]([O-])c1ccc(O)c(C2N(Cc3ccc(N(CCCl)CCCl)cc3)CCCN2Cc2ccc(N(CCCl)CCCl)cc2)c1")
"95 % of control"
>>> experimental_value("Cc1ccccc1SCC#CCSc1ccccc1C")
"106 % of control"
>>> experimental_value("COc1ccc2c(c1)CCC1=C2CCC(C(=O)O)C1(C)C(=O)O (stereo unspecified)")
"92 % of control"

----------
Tested on: L1210 leukemia ip in BDF1 mice, survival T/C
EXPERIMENTAL DETAILS: NCI In Vivo Anticancer Drug Screen. Data for tumor model L1210 Leukemia (intraperitoneal) in B6D2F1 (BDF1) mice
RECORDED CONDITIONS: endpoint: mean survival time; dose: 400.0 mg/kg/injection; schedule: Q01DX009 (ip); vehicle: saline with Tween-80; higher = longer survival
Toxic doses and inconclusive results are not listed.
REPORTED METRIC: T/C

>>> experimental_value("O=[N+]([O-])c1ccc2c([N+](=O)[O-])ccc3c2c1CC3")
"92 % of control"
>>> experimental_value("CN(C(=O)c1ccc([N+](=O)[O-])cc1)C(c1ccco1)P(=O)(c1ccccc1)c1ccccc1 (stereo unspecified)")
"90 % of control"
>>> experimental_value("COC(OC)c1cc(=O)[nH]c(NC(=O)C(Cl)Cl)n1")
"93 % of control"
>>> experimental_value("CC1=CC(=O)N(N)C1=O")
"100 % of control"
>>> experimental_value("CCCCNC(=O)Nc1ccc(N(CC)CC)cc1")
"90 % of control"
>>> experimental_value("NC(N)=NS(=O)(=O)c1ccc(N)cc1")
"91 % of control"

----------
Here, each record is paired with measured T/C data.
System: L1210 leukemia ip in BDF1 mice, survival T/C
EXPERIMENTAL DETAILS: NCI In Vivo Anticancer Drug Screen. Data for tumor model L1210 Leukemia (intraperitoneal) in B6D2F1 (BDF1) mice
RECORDED CONDITIONS: endpoint: mean survival time; dose: 100.0 mg/kg/injection; schedule: Q04DX002 (ip); vehicle: saline with Tween-80; higher = longer survival
Inconclusive results and toxic doses are left out.
REPORTED METRIC: T/C

>>> experimental_value("Cc1cc(=O)c(O)c(N(C)C)o1")
"102 % of control"
>>> experimental_value("O=C(O)c1c(F)cccc1Cl")
"93 % of control"
>>> experimental_value("O=C(O)CC(NC(=O)OCc1ccccc1)c1ccccc1 (stereo not given)")
"110 % of control"
>>> experimental_value("O=C(Nc1ccccn1)c1ccccc1")
"99 % of control"
>>> experimental_value("CCOC(=O)c1ccc(Nc2sc(C(=O)c3ccc(-c4ccccc4)cc3)c(N)c2C#N)cc1")
"92 % of control"
